From: patent US11131677B2

experiment: Oral testosterone pharmacokinetics and serum metabolite profile (LC-MS/MS) in men with acyline-induced experimental hypogonadism, with and without dutasteride; format: in vivo, human; conditions: serum, T200 + D (200 mg oral T with dutasteride)
parameter: t½ (h)
Numbers only; they are read as h.

Please review the entries below; each comes with its answer.
| compound | t½ (h) |
| --- | --- |
| C[C@]12CC[C@@H](O[C@@H]3O[C@H](C(=O)O)[C@@H](O)[C@H](O)[C@H]3O)C[C@H]1CC[C@@H]1[C@@H]2CC[C@]2(C)C(=O)CC[C@@H]12 [EtioG, Etiocholanolone glucuronide] | 10.5 |
| C[C@]12CCC(=O)C[C@@H]1CC[C@@H]1[C@@H]2CC[C@]2(C)[C@@H](O)CC[C@@H]12 [DHT, 5α-Dihydrotestosterone] | 24.0 |
| C[C@]12CC[C@H]3[C@@H](CCC4=CC(=O)CC[C@@]43C)[C@@H]1CC[C@@H]2O [T, Testosterone, reference compound] | 7.0 |
| C[C@]12CC[C@H]3[C@@H](CCC4=CC(=O)CC[C@@]43C)[C@@H]1CC[C@@H]2O[C@@H]1O[C@H](C(=O)O)[C@@H](O)[C@H](O)[C@H]1O [TG, Testosterone glucuronide] | 4.3 |
| C[C@]12CCC(=O)C=C1CC[C@@H]1[C@@H]2CC[C@]2(C)C(=O)CC[C@@H]12 | 8.3 |

Turning now to a further record.
Documented t½ of C[C@]12CC[C@@H](O[C@@H]3O[C@H](C(=O)O)[C@@H](O)[C@H](O)[C@H]3O)C[C@@H]1CC[C@@H]1[C@@H]2CC[C@]2(C)C(=O)CC[C@@H]12 [AG, Androsterone glucuronide] : 4.5

---

assay: Oral testosterone pharmacokinetics and serum metabolite profile (LC-MS/MS) in men with acyline-induced experimental hypogonadism, with and without dutasteride; format: in vivo, human; conditions: serum, T200 (200 mg oral T)
Listed next: entries and their corresponding t½.
Reply numerically in h, unit not repeated.

| molecule | parameter | experimental-value |
| --- | --- | --- |
| C[C@]12CC[C@H]3[C@@H](CCC4=CC(=O)CC[C@@]43C)[C@@H]1CC[C@@H]2O [T, Testosterone, reference compound] | t½ | 12.0 |
| C[C@]12CC[C@H]3[C@@H](CCC4=CC(=O)CC[C@@]43C)[C@@H]1CC[C@@H]2O[C@@H]1O[C@H](C(=O)O)[C@@H](O)[C@H](O)[C@H]1O [TG, Testosterone glucuronide] | t½ | 4.4 |
| C[C@]12CC[C@@H](O[C@@H]3O[C@H](C(=O)O)[C@@H](O)[C@H](O)[C@H]3O)C[C@@H]1CC[C@@H]1[C@@H]2CC[C@]2(C)C(=O)CC[C@@H]12 [AG, Androsterone glucuronide] | t½ | 4.9 |
| C[C@]12CCC(=O)C=C1CC[C@@H]1[C@@H]2CC[C@]2(C)C(=O)CC[C@@H]12 [AED, Androstenedione] | t½ | 12.7 |
| C[C@]12CCC(=O)C[C@@H]1CC[C@@H]1[C@@H]2CC[C@]2(C)[C@@H](O)CC[C@@H]12 [DHT, 5α-Dihydrotestosterone] | t½ | 17.6 |

Read the next record carefully.
The molecule listed as C[C@]12CC[C@@H](O[C@@H]3O[C@H](C(=O)O)[C@@H](O)[C@H](O)[C@H]3O)C[C@H]1CC[C@@H]1[C@@H]2CC[C@]2(C)C(=O)CC[C@@H]12 [EtioG, Etiocholanolone glucuronide] shows t½ equal to 5.2
